// data source = the SangsterLogP compilation

# testDetails: method code SF, from DOI: 10.1080/10826079508010421
# conditionLabel: pH 11.0
quantityName: logD

molecule="COc1ccccc1OCC1CN=C(N)O1 (stereo not given)" quantityname=logD resultnumber=0.85
molecule="COc1ccc(OCC2CN=C(N)O2)cc1 (stereo not given)" quantityname=logD resultnumber=1.26
molecule="NC1=NCC(COc2ccccc2)O1 (stereo not given)" quantityname=logD resultnumber=1.27
molecule="CCOc1ccccc1OCC1CN=C(N)O1 (stereo not given)" quantityname=logD resultnumber=1.24
molecule="NC1=NCC(COc2ccc(Cl)cc2)O1 (stereo not given)" quantityname=logD resultnumber=2
molecule="Cc1ccc(OCC2CN=C(N)O2)cc1 (stereo not given)" quantityname=logD resultnumber=1.79
molecule="Cc1ccccc1OCC1CN=C(N)O1 (stereo not given)" quantityname=logD resultnumber=1.69
molecule="NC1=NCC(COc2ccc([N+](=O)[O-])cc2)O1 (stereo not given)" quantityname=logD resultnumber=1.17
molecule="NC1=NCC(COc2ccc(N3CCOCC3)cc2)O1 (stereo not given)" quantityname=logD resultnumber=0.6
molecule="NC1=NCC(COc2ccccc2Cl)O1 (stereo not given)" quantityname=logD resultnumber=1.77
